assayDetails: in vivo
testContext: mouse, po, 416 mg/kg
Numbered stars: 1 amine (or outer) side, 2 acyl side, 3 side chain; on linkers, the order of the positions; unused ones are H or OH. Bridge positions count the residues as written; N and C are the ends. Square brackets hold non-standard residues; d marks the D form. Peptide text beside a SMILES is read from it. * marks the point of attachment. Orn(4R-OH,5R-OH) = O=C([C@H](C[C@@H](O)[C@@H](O)N[*:3])N[*:1])[*:2]; hTyr(3S-OH,4S-OH) = N[C@H](C(=O)O)[C@H](O)[C@@H](O)c1ccc(O)cc1; Pro(3S-OH,4S-Me) = C[C@H]1CN[C@H](C(=O)O)[C@H]1O; X1 = O=C(c1cc(I)c(N[*:1])c(I)c1)[*:2]; X6 = O=C(C=Cc1ccc(N[*:1])cc1)[*:2]; Hyp = O=C(O)[C@@H]1C[C@@H](O)CN1; X2 = O=C(Cc1ccc(N[*:1])cc1)[*:2]; Lauroyl = CCCCCCCCCCCC(=O)*; Aun = NCCCCCCCCCCC(=O)O
outcomeMeasure: concentration at 4 h (ng/mL)

- CCCCCCCCCCCC(=O)Nc1ccc(C=CC(=O)N[C@H]2C[C@@H](O)[C@@H](O)NC(=O)[C@@H]3[C@@H](O)[C@@H](C)CN3C(=O)[C@H]([C@@H](C)O)NC(=O)[C@H]([C@H](O)[C@@H](O)c3ccc(O)cc3)NC(=O)[C@@H]3C[C@@H](O)CN3C(=O)[C@H]([C@@H](C)O)NC2=O)cc1 [Example 73] (Lauroyl-[X6][Orn(4R-OH,5R-OH)]T[Hyp][hTyr(3S-OH,4S-OH)]T[Pro(3S-OH,4S-Me)]; lactam 2-C): 1310
- CCCCCCCCCCCC(=O)NCCCCCCCCCCC(=O)N[C@H]1C[C@@H](O)[C@@H](O)NC(=O)[C@@H]2[C@@H](O)[C@@H](C)CN2C(=O)[C@H]([C@@H](C)O)NC(=O)[C@H]([C@H](O)[C@@H](O)c2ccc(O)cc2)NC(=O)[C@@H]2C[C@@H](O)CN2C(=O)[C@H]([C@@H](C)O)NC1=O [Example 63] ({Lauroyl-Aun}-[Orn(4R-OH,5R-OH)]T[Hyp][hTyr(3S-OH,4S-OH)]T[Pro(3S-OH,4S-Me)]; lactam 1-C): 400
- CCCCCCCCCCCC(=O)Nc1ccc(CC(=O)N[C@H]2C[C@@H](O)[C@@H](O)NC(=O)[C@@H]3[C@@H](O)[C@@H](C)CN3C(=O)[C@H]([C@@H](C)O)NC(=O)[C@H]([C@H](O)[C@@H](O)c3ccc(O)cc3)NC(=O)[C@@H]3C[C@@H](O)CN3C(=O)[C@H]([C@@H](C)O)NC2=O)cc1 [Example 72] (Lauroyl-[X2][Orn(4R-OH,5R-OH)]T[Hyp][hTyr(3S-OH,4S-OH)]T[Pro(3S-OH,4S-Me)]; lactam 2-C): 340
- CCCCCCCCCCCC(=O)Nc1c(I)cc(C(=O)N[C@H]2C[C@@H](O)[C@@H](O)NC(=O)[C@@H]3[C@@H](O)[C@@H](C)CN3C(=O)[C@H]([C@@H](C)O)NC(=O)[C@H]([C@H](O)[C@@H](O)c3ccc(O)cc3)NC(=O)[C@@H]3C[C@@H](O)CN3C(=O)[C@H]([C@@H](C)O)NC2=O)cc1I [Example 68] (Lauroyl-[X1][Orn(4R-OH,5R-OH)]T[Hyp][hTyr(3S-OH,4S-OH)]T[Pro(3S-OH,4S-Me)]; lactam 2-C): 340

====

Tested on: Candida albicans A-26
assayDetails: Therapeutic activity against Candida albicans A-26 infection in mice
Assay type: in vivo
testContext: A26, sc
Experimental: The results of in vivo tests to evaluate the effectiveness of the compound of Examples 61-81, 86 and 88 against an infection caused by Candida albicans A-26 in mice are given in Table 7, where activity is measured by the ED50 value (the dose in mg/kg. required to cure 50% of the test animals). […] **As measured by increase in survival time of treated animals versus control, calculated by method of Reed V. Mueuch, American J. Hygiene, 493
Numbered stars: 1 amine (or outer) side, 2 acyl side, 3 side chain; on linkers, the order of the positions; unused ones are H or OH. Bridge positions count the residues as written; N and C are the ends. Square brackets hold non-standard residues; d marks the D form. Peptide text beside a SMILES is read from it. * marks the point of attachment. Orn(4R-OH,5R-OH) = O=C([C@H](C[C@@H](O)[C@@H](O)N[*:3])N[*:1])[*:2]; hTyr(3S-OH,4S-OH) = N[C@H](C(=O)O)[C@H](O)[C@@H](O)c1ccc(O)cc1; Pro(3S-OH,4S-Me) = C[C@H]1CN[C@H](C(=O)O)[C@H]1O; Hyp = O=C(O)[C@@H]1C[C@@H](O)CN1; Decanoyl = CCCCCCCCCC(=O)*; 4Abz = Nc1ccc(C(=O)O)cc1; Heptanoyl = CCCCCCC(=O)*
outcomeMeasure: ED50

• CCCCCCC(=O)Nc1ccc(C(=O)N[C@H]2C[C@@H](O)[C@@H](O)NC(=O)[C@@H]3[C@@H](O)[C@@H](C)CN3C(=O)[C@H]([C@@H](C)O)NC(=O)[C@H]([C@H](O)[C@@H](O)c3ccc(O)cc3)NC(=O)[C@@H]3C[C@@H](O)CN3C(=O)[C@H]([C@@H](C)O)NC2=O)cc1 [Example 78] ({Heptanoyl-4Abz}-[Orn(4R-OH,5R-OH)]T[Hyp][hTyr(3S-OH,4S-OH)]T[Pro(3S-OH,4S-Me)]; lactam 1-C) = > 40 mg/kg
• CCCCCCCCCC(=O)Nc1ccc(C(=O)N[C@H]2C[C@@H](O)[C@@H](O)NC(=O)[C@@H]3[C@@H](O)[C@@H](C)CN3C(=O)[C@H]([C@@H](C)O)NC(=O)[C@H]([C@H](O)[C@@H](O)c3ccc(O)cc3)NC(=O)[C@@H]3C[C@@H](O)CN3C(=O)[C@H]([C@@H](C)O)NC2=O)cc1 [Example 79] ({Decanoyl-4Abz}-[Orn(4R-OH,5R-OH)]T[Hyp][hTyr(3S-OH,4S-OH)]T[Pro(3S-OH,4S-Me)]; lactam 1-C) = 26 mg/kg
• CC(=O)Nc1ccc(C(=O)N[C@H]2C[C@@H](O)[C@@H](O)NC(=O)[C@@H]3[C@@H](O)[C@@H](C)CN3C(=O)[C@H]([C@@H](C)O)NC(=O)[C@H]([C@H](O)[C@@H](O)c3ccc(O)cc3)NC(=O)[C@@H]3C[C@@H](O)CN3C(=O)[C@H]([C@@H](C)O)NC2=O)cc1 [Example 77] (Ac-[4Abz][Orn(4R-OH,5R-OH)]T[Hyp][hTyr(3S-OH,4S-OH)]T[Pro(3S-OH,4S-Me)]; lactam 2-C) = > 40 mg/kg

====

Test system: Candida albicans A-26
assayDetails: Agar plate disc diffusion test, MIC per disc
Format: cell-based
testContext: 0.01M sodium borate, pH 7.5, 24 hours at 30° C.
Numbered stars: 1 amine (or outer) side, 2 acyl side, 3 side chain; on linkers, the order of the positions; unused ones are H or OH. Bridge positions count the residues as written; N and C are the ends. Square brackets hold non-standard residues; d marks the D form. Peptide text beside a SMILES is read from it. * marks the point of attachment. Orn(4R-OH,5R-OH) = O=C([C@H](C[C@@H](O)[C@@H](O)N[*:3])N[*:1])[*:2]; hTyr(3S-OH,4S-OH) = N[C@H](C(=O)O)[C@H](O)[C@@H](O)c1ccc(O)cc1; Pro(3S-OH,4S-Me) = C[C@H]1CN[C@H](C(=O)O)[C@H]1O; Hyp = O=C(O)[C@@H]1C[C@@H](O)CN1; Lauroyl = CCCCCCCCCCCC(=O)*; 3Abz = Nc1cccc(C(=O)O)c1; Ava = NCCCCC(=O)O
MIC values by entry
outcomeMeasure: MIC

• CCCCCCCCCCCC(=O)NCCCCC(=O)N[C@H]1C[C@@H](O)[C@@H](O)NC(=O)[C@@H]2[C@@H](O)[C@@H](C)CN2C(=O)[C@H]([C@@H](C)O)NC(=O)[C@H]([C@H](O)[C@@H](O)c2ccc(O)cc2)NC(=O)[C@@H]2C[C@@H](O)CN2C(=O)[C@H]([C@@H](C)O)NC1=O [Example 62] ({Lauroyl-Ava}-[Orn(4R-OH,5R-OH)]T[Hyp][hTyr(3S-OH,4S-OH)]T[Pro(3S-OH,4S-Me)]; lactam 1-C) = 1.25 μg/disc
• CCCCCCCCCCCC(=O)Nc1cccc(C(=O)N[C@H]2C[C@@H](O)[C@@H](O)NC(=O)[C@@H]3[C@@H](O)[C@@H](C)CN3C(=O)[C@H]([C@@H](C)O)NC(=O)[C@H]([C@H](O)[C@@H](O)c3ccc(O)cc3)NC(=O)[C@@H]3C[C@@H](O)CN3C(=O)[C@H]([C@@H](C)O)NC2=O)c1 [Example 65] ({Lauroyl-3Abz}-[Orn(4R-OH,5R-OH)]T[Hyp][hTyr(3S-OH,4S-OH)]T[Pro(3S-OH,4S-Me)]; lactam 1-C) = 5.0 μg/disc
